molecular target: BmCSP3 (chemosensory protein 3) (Bombyx mori, UniProt Q3LBA2); construct: residues 19–109 of UniProt entry Q3LBA2; assay: direct fluorescence titration of the probe with purified protein, single-site saturation fit

# Smiles Str, Kd [µM]
measured = [
    ("c1ccc(Nc2cccc3ccccc23)cc1", 5.8),
]

---

# reported pEC50; entries follow
Biological target: BmCSP3 (chemosensory protein 3) (Bombyx mori, UniProt Q3LBA2)
Construct: residues 19–109 of UniProt entry Q3LBA2
Sequence (Q3LBA2 19-127): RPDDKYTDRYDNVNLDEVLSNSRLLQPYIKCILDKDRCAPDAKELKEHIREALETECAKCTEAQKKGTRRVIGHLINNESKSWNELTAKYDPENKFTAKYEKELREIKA
Assay: biochemical
Settings: EC50int, 1-NPN displacement; read-out: EC50,int ± SE (μΜ)
pEC50: −log10 of the molar value.

# Molecule, Qualifying Sign, pEC50
records = [
    ("NC(=O)CC[C@H](N)C(=O)O", "=", 5.11),
    ("O=C(O)Cc1cc(O)ccc1O", "=", 5.17),
    ("NCCCC[C@H](N)C(=O)O", "<", 4.70),
    ("NCCc1c[nH]c2ccc(O)cc12", "=", 5.32),
    ("NCCCC(N)C(=O)O (racemic)", "<", 4.70),
    ("CC(=O)NCCc1c[nH]c2ccc(O)cc12", "=", 5.24),
]

---

# reported pEC50; entries follow
target: BmCSP3 (chemosensory protein 3) (Bombyx mori); construct: residues 19–109 of UniProt entry Q3LBA2; experiment: biochemical; details: EC50int, 1-NPN displacement; read-out: EC50,int ± SE (μΜ)
pEC50: −log10 of the molar value.

# Molecule, Measurement Target, Qualifying Sign, pEC50
rows = [
    ("CC/C=C\\C/C=C\\C=C\\[C@@H](O)CCCCCCCC(=O)O [9(S)-HOTrE]", "BmCSP3 (chemosensory protein 3) (Bombyx mori)", "=", 6.10),
    ("NCC(=O)O [Glycine]", "BmCSP3 (chemosensory protein 3) (Bombyx mori)", "<", 4.70),
    ("NCCc1c[nH]c2ccccc12 [Tryptamine]", "BmCSP3 (chemosensory protein 3) (Bombyx mori)", "=", 7.52),
    ("Nc1ccccc1C(=O)C[C@H](N)C(=O)O [L-kynurenine]", "BmCSP3 (chemosensory protein 3) (Bombyx mori)", "=", 6.70),
]

---

# reported pKi; entries follow
Molecular target: BmCSP3 (chemosensory protein 3) (Bombyx mori)
Construct: residues 19–109 of UniProt entry Q3LBA2
Sequence (Q3LBA2 19-127): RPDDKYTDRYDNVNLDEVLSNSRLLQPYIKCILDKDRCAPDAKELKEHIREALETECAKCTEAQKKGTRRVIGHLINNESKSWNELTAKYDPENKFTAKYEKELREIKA
Assay: 1-NPN fluorescence displacement binding assay with purified protein
Conditions: read-out: Ki
pKi: −log10 of the molar value.
Property Name: pKi

# Compound, Measurement Target, Quantitative Result
measured = [
    ("CC(=O)NCCc1c[nH]c2ccc(O)cc12", "BmCSP3 (chemosensory protein 3) (Bombyx mori)", 5.67),
    ("CC/C=C\\C/C=C\\C=C\\[C@@H](O)CCCCCCCC(=O)O [9(S)-HOTrE]", "BmCSP3 (chemosensory protein 3) (Bombyx mori)", 6.54),
    ("Nc1ccccc1C(=O)C[C@H](N)C(=O)O", "BmCSP3 (chemosensory protein 3) (Bombyx mori)", 7.14),
    ("NC(=O)CC[C@H](N)C(=O)O", "BmCSP3 (chemosensory protein 3) (Bombyx mori)", 5.55),
]
